From: paper PMC10999543

system: HeLa cells; assay: Compound screen by flow cytometry: HeLa cell count as surrogate readout of cell viability (z-scoreHeLa); assay type: cell-based, human; conditions: human; also: test concentration or dose not given here
Note to self: z-scoreHeLa rep 2 under -2 means Y, ties and anything higher get N.

| COMPOUND | LABEL |
| --- | --- |
| COc1cc2c(Nc3ccc(NC(=O)c4ccccc4)cc3)ncnc2cc1OCCCN1CCOCC1 [GSK301329A] | N |
| O=C1Nc2ccc(I)cc2C1=Cc1cc(Br)c(O)c(Br)c1 [GW305074X] | N |
| CCN(CC)CCOc1ccc(Nc2ncc3cc(-c4c(Cl)cccc4Cl)c(=O)n(C)c3n2)cc1 | Y |
| Cc1ccc(O)cc1Nc1ccnc2ccc(S(C)(=O)=O)cc12 [GW559768X] | N |
| Clc1ccc(CNc2nccc(-c3cnn4ncccc34)n2)cc1 [GW781673X] | N |
